Please go through the items and note down their EC50.
Test system: phospho-Akt in Panc10.05 (G12D)
MEASUREMENT DESCRIPTION: In-Cell Western phospho-Akt, Panc10.05
Format: cell-based
CONDITION DETAILS: Homo sapiens, Panc1005, 1 h; Panc10.05, one hour treatment; read-out: In-Cell Western Panc10.05 (G12D) Akt (P)
Just the number please, in µM, no unit attached.

input: Query: EC50; subject: Cc1nc(C(C)C)oc1C(=O)Nc1nc(-c2ccc3c(c2)CCC(=O)N3)cs1
output: 8

input: And then Cc1nc(C)c(C(=O)Nc2nc(-c3ccc4c(c3)CCC(=O)N4CC3CCCOC3)cs2)o1 (centres unmarked) , what is it?
output: 18

input: Let us now turn to Cc1nn(Cc2ccccc2)c(C)c1C(=O)Nc1nc(-c2ccc3c(c2)CCC(=O)N3)cs1
output: 21

input: Follow-up item: Cc1nc(C2CC2)oc1C(=O)Nc1nc(-c2ccc3c(c2)CCC(=O)N3)cs1
output: 3

input: Next compound up: Cc1ncccc1C(=O)Nc1nc(-c2ccc3c(c2)CCC(=O)N3)cs1
output: 23
